Tested on: 439559-082-T-J2-PDC spheroids viability
Assay: Anticancer human tumor 439559-082-T-J2-PDC patient-derived colon adenocarcinoma cell line growth inhibition [GQUAD]
Details: second compound 3.16 µM; first compound 0.316 µM; stronger effect = lower value
Measure name: viability, T/C (%)
Use % as the unit, but write only the number.

C=CC(=O)N1CCN(c2nc(=O)n(-c3c(C)ccnc3C(C)C)c3nc(-c4c(O)cccc4F)c(F)cc23)C(C)C1 (stereo not given) + Cc1cnc(CNC(=O)c2c(=O)c3ccc(N4CCCN(C)CC4)nc3n3c2sc2ccccc23)cn1 :: 71.5
Cc1cccc(N(C)C(=O)C2C(O)CCN2c2nc(C)cc(C(F)(F)F)c2C#N)c1 (stereo not given) + Cc1[nH]c2ccc(F)cc2c1-c1nc2c3cccnc3c3ncccc3c2[nH]1 :: 93.1

According to the records, this molecule COc1cc(C2c3cc4c(cc3C(OC3OC5COC(C)OC5C(O)C3O)C3COC(=O)C23)OCO4)cc(OC)c1O (stereo not given) + Cc1[nH]c2ccc(F)cc2c1-c1nc2c3cccnc3c3ncccc3c2[nH]1 displays viability, T/C of 84.1

According to the records, this molecule CC(C)(O)C1CCC(Nc2ccc3ncc(-c4cccc(C(F)(F)F)c4)n3n2)CC1 (stereo not given) + Cc1cnc(CNC(=O)c2c(=O)c3ccc(N4CCCN(C)CC4)nc3n3c2sc2ccccc23)cn1 displays viability, T/C of 61

According to the records, this molecule Nc1ccn(C2OC(CO)C(O)C2(F)F)c(=O)n1 (stereo not given) + CN(C)c1ccc(Nc2c3ccc(NC(=O)CCN4CCCC4)cc3nc3cc(NC(=O)CCN4CCCC4)ccc23)cc1 displays viability, T/C of 38.7

###

Measured pIC50, listed per entry.
System: 439559-082-T-J2-PDC spheroids viability
Assay: Anticancer human tumor 439559-082-T-J2-PDC cell line growth inhibition [GQUAD];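 note: spheroids exposed to the agents for 7 days before readout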
Conditions: curve of first compound; second compound 0.0316 µM
Description: DNA G-quadruplex Stabilizer Agents in Combinations in Complex Spheroids A high-throughput screen of multi-cell type tumor spheroids was designed to identify active combinations of DNA G-quadruplex stabilizer agents and targeted small molecules. […] Compounds. […] If the clinical Cmax for an agent had not been determined, the highest concentration tested was 10 microM. […]
pIC50: −log10 of the molar value.

// solved cases for pIC50 follow
O=C(c1cc(Cc2n[nH]c(=O)c3ccccc23)ccc1F)N1CCN(C(=O)C2CC2)CC1 + Cc1cnc(CNC(=O)c2c(=O)c3ccc(N4CCCN(C)CC4)nc3n3c2sc2ccccc23)cn1 :: < 5.00
COc1cc(C2c3cc4c(cc3C(OC3OC5COC(C)OC5C(O)C3O)C3COC(=O)C23)OCO4)cc(OC)c1O (stereo not given) + CN(C)c1ccc(Nc2c3ccc(NC(=O)CCN4CCCC4)cc3nc3cc(NC(=O)CCN4CCCC4)ccc23)cc1 :: < 5.00

According to the records, this molecule CCCS(=O)(=O)Nc1ccc(F)c(C(=O)c2c[nH]c3ncc(-c4ccc(Cl)cc4)cc23)c1F + Cc1[nH]c2ccc(F)cc2c1-c1nc2c3cccnc3c3ncccc3c2[nH]1 displays pIC50 of 5.56

According to the records, this molecule COc1ccc([C@@H](O)c2cc(-c3ncnc4cc(N5CCOCC5)ccc34)c(F)cc2Cl)nn1 + Cc1[nH]c2ccc(F)cc2c1-c1nc2c3cccnc3c3ncccc3c2[nH]1 displays pIC50 of < 5.00

According to the records, this molecule COc1ncnc(C2CC2)c1-c1ncc2cnn(Cc3ccc(-c4nc(C(F)(F)F)cn4C(C)C)cc3)c2n1 + Cc1[nH]c2ccc(F)cc2c1-c1nc2c3cccnc3c3ncccc3c2[nH]1 displays pIC50 of < 5.00
